I'd appreciate it if you could supply GI50 values for the items below.
tested on: DU-145; test: NCI tumour cell line growth inhibition, 48 h
Activity calls are given as the source filed them. Cut-off read from the data, not from the text of the source: active = GI50 up to about 1.1 µM and inactive = higher.

Please review the entries below; each comes with its answer.
Nc1ncc2c(n1)-c1ccccc1OC2N1CCOCC1 (stereo not given); > 100 µM (inactive)
N#C/C=c1/c2ccccc2n2nc3ccccc3c12; > 100 µM (inactive)
CN(C)CC1CCC(CN(C)C)C(=O)C1=O (stereo not given); 16.5 µM (inactive)

Provide GI50 values for the following items, in order.
1. [O-][n+]1cc(SCc2ccccc2)ncc1SCc1ccccc1
2. COc1ccc2c(c1)CC[C@@H]1[C@@H]2CC[C@]2(C)C(=O)/C(=C/c3ccc(N(C)C)cc3)C[C@@H]12
3. CC(CO)[C@H]1OC(=O)C=C2[C@@]13O[C@@H]3[C@H]1OC(=O)[C@@]3(C)[C@H]4O[C@H]4C[C@@]2(C)[C@@H]13 (stereo not given in full)
4. O=C(O)C(Cc1ccc(O)cn1)NC(=O)C(F)(F)F (stereo not given)
5. CN(C)CCCn1nc(N)c2nc3cc(Cl)ccc3nc21
6. COC(=O)C12C3C4C1C1C2C3C41C(=O)NC(C)(C)CC(=O)O (stereo not given)

// result
> 10 µM (inactive)
> 100 µM (inactive)
1.39 µM (inactive)
> 100 µM (inactive)
54.8 µM (inactive)
> 100 µM (inactive)

Form field GI50 for item C=C(C)[C@@H]1CC=C(CO)CC1 on DU-145: > 10 µM (inactive)

Provenance of the data: ChEMBL document CHEMBL1201862
